Target: human JAK3 (aa 795-1124) (Homo sapiens, UniProt P52333)
Construct: JAK3 (aa 795-1124); GST (N); purchased Carna Biosciences; host or cells: baculovirus expression system
Sequence (P52333 795-1124): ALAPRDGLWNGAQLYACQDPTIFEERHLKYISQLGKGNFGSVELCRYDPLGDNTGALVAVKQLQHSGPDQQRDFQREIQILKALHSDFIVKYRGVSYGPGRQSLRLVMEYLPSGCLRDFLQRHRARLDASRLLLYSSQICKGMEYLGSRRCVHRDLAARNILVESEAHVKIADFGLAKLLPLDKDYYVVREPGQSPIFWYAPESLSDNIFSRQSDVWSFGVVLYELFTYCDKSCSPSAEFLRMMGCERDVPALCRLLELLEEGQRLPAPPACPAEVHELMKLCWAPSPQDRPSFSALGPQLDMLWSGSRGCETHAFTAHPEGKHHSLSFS
Assay: In vitro JAK kinase assay (TR-FRET), JAK3
Format: biochemical
Conditions: catalytic domain GST-fusion; ATP 0.6 μM; poly (GT)-Biotin 140 nM; 30 minutes at room temperature
pIC50: −log10 of the molar value.
A collection of molecules and their measured pIC50

# annotated cases, reported pIC50 shown
1. O=c1[nH]cccc1Nc1nc(N2CCOCC2)c2[nH]c(=O)n(C3CCOCC3)c2n1 [Example 50] : > 7.00
2. O=c1[nH]cncc1Nc1ncc2[nH]c(=O)n(C3CCOCC3)c2n1 [Example 51] : 6.00 to 7.00
3. O=c1[nH]cccc1Nc1ncc2c(n1)n(C1CCOCC1)c(=O)n2CCO [Example 46] : > 7.00
4. N#C[C@@H]1CCCC[C@H]1n1c(=O)[nH]c2cnc(Nc3ccc[nH]c3=O)nc21 (relative stereo) [Example 23] : > 7.00
5. O=c1[nH]cccc1Nc1ncc2[nH]c(=O)n([C@@H]3CCCC[C@@H]3CO)c2n1 (relative stereo) [Example 21] : > 7.00

With those in mind, consider the next molecule.
(Q) Report pIC50 under test system human JAK3 (aa 795-1124) (Homo sapiens, UniProt P52333) for C[C@H](c1ncc(F)cn1)n1c(=O)[nH]c2cnc(Nc3cnc[nH]c3=O)nc21 [Example 52] .
(A) 6.00 to 7.00
